target: Metabotropic glutamate receptor 8 (Rattus norvegicus); experiment: mGluR8 Gi/Go-coupled signaling modulation – cell-based, rat, thallium flux, HTS, primary screen (AID 488969); conditions: HEK293 rat mGluR8, GIRK (G protein-gated inwardly rectifying potassium channel) thallium flux, FluoZin2; at 10 µM; stronger effect = higher value; submaximal glutamate (EC20) added with thallium
In all, about 110,000 compounds were measured (“z-score”: median about -0.1, highest 2% from about 2 on). What follows is part of a selection rich in the highest values, with near analogues and random picks from the rest. Activity calls are given as the source filed them.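 Rule for the calls: active = z-score in the third read window above 3 or below -3; inactive = the rest.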
Provide the recorded z-score for the entries that follow.

Example compounds with recorded z-score:
O=C(NC(=S)Nc1c(Cl)ccc2nsnc12)c1ccco1 : -0.429
CC(CN1CCCCC1)OC(=O)c1ccc(Cl)cc1Cl (centres undefined) : 2.27
Cc1ccnc(NC(=S)NC(=O)c2ccco2)c1 : 2
CCOc1cc(-c2cc(-c3ccc(C)cc3)nc(N)c2C#N)ccc1O : -0.244
Cc1ccnc(NC(=S)NC(=O)c2cccs2)c1 : 7.29 (active)

Field: z-score. Fill in for each record below.
1. CCOc1ccc(Cl)cc1CNCCNCC(C)O (centres undefined)
2. OCCN1CCN(Cc2cc(Cl)c3cccnc3c2O)CC1
3. COC(=O)c1cccc(-n2c(C)cc(C=O)c2C)c1
4. COc1ccc(-c2cc(C(F)(F)F)nc(SCC(=O)NCCN3CCOCC3)n2)cc1OC
5. CC(CN1CCN(C)CC1)OC(=O)c1ccc(Cl)cc1Cl (centres undefined)
6. O=C(CSc1nc(-c2ccccc2)cc(C(F)(F)F)n1)NCCN1CCOCC1
7. CCOc1ccc(Cl)cc1CNCCNCCO

2.17
0.225
-0.0226
0.846
0.335
2.92
0.172

Hey, quick one: what's z-score for each of these?
1. CN1C(=O)NC(c2ccccc2)C2=C1CN(CCc1ccccc1)C2=O (centres undefined)
2. Cc1ccc(N2CC3=C(C2=O)C(c2ccccc2)NC(=O)N3C)cc1 (centres undefined)
3. O=C1C2C3C=CC([C@@H]2C(=O)N1c1nccs1)C31CC1 (some centres undefined)
4. Oc1ccc(CN2CCc3ccccc3C2)c2cccnc12
5. COc1c(Cl)cc(Cl)cc1CNCCNCCO
6. O=C(Nc1ccc(F)cc1)c1ccccc1

[0.0172, -0.193, -0.0608, 0.165, 0.598, -0.000317]

Could you report z-score for every entry in the following list?
1. CN1C(=O)NC(c2ccccc2)C2=C1CN(Cc1ccccc1)C2=O (centres undefined)
2. COC(=O)Oc1cncc(C(=O)O)c1
3. COc1ccc(S(=O)(=O)N(C(C)=O)c2ccc(OC(C)=O)c3ccccc23)cc1[N+](=O)[O-]
4. Cc1ccc(S(=O)(=O)N(C)/C(=N/S(=O)(=O)c2ccccc2)c2ccccc2)cc1
5. Cc1ccnc(NC(=S)NC(=O)/C=C/c2ccccc2)c1
6. O=C(CSc1nnc(-c2ccc(F)cc2)o1)Nc1ccccc1N1CCOCC1
7. CCOC(=O)c1cncc(C(=O)O)c1
8. N#CCSc1nnc2ccc3ccccc3n12

1: 7.33 (active); 2: -0.0704; 3: -0.812; 4: -0.162; 5: -0.0726; 6: -0.906; 7: 1.8; 8: -0.272

I have 6 compounds here; please give me z-score for each one.
1. Cc1ccnc(NC(=S)NC(=O)/C=C/c2ccco2)c1
2. CC(NC(=O)c1ccc(-c2cc(C(F)(F)F)ccc2Cl)o1)c1ccccc1 (centres undefined)
3. Nc1nc(CSC(=S)N2CCOCC2)nc(Nc2ccc(F)cc2)n1
4. CCC(=O)NC(=S)Nc1ccc(Cl)cn1
5. Cc1cccc(NC(=S)NC(=O)/C=C/c2ccco2)n1
6. CC(=O)Oc1ccc(N(C(C)=O)S(=O)(=O)c2cccs2)cc1

["3.2 (active)", -0.132, -0.0752, 0.168, 0.626, -0.202]

For every item below, please supply its z-score.
1. CCOC(=O)C1CCCN(C(=O)c2ccccc2SCCOC)C1 (centres undefined)
2. CC(=O)Oc1ccc(N(C(C)=O)S(=O)(=O)c2cccs2)c2ccccc12
3. Cc1cc(N2C(=O)CC(Cc3ccccc3)C2=O)no1 (centres undefined)

0.188
4.9 (active)
-0.0586

Parameter requested: z-score. Apply to each item below.
1. COC(=O)C1=CN(C(C)C)C=C(C(=O)OC)C1c1cc2c(cc1Br)OCO2
2. Cc1nn(-c2ccc(C(=O)O)cc2)c(C)c1Oc1ccccc1O
3. CCOc1cccc(CNCCO)c1OCc1ccc(Cl)cc1Cl
4. O=C(Nc1ncc(Cl)cn1)c1cccs1
5. CCOc1c(Cl)cc(Cl)cc1CNCCNCCO
6. O=C(CSc1nc(-c2ccc(F)cc2)cc(C(F)(F)F)n1)NCCN1CCOCC1
7. COc1ccccc1N1C(=O)CCC1(C#N)c1ccc(Br)cc1 (centres undefined)

1: -0.0368; 2: -0.318; 3: 0.93; 4: 0.0318; 5: 0.738; 6: 0.00416; 7: -0.14

Items follow; give z-score for each.
1. O=C(CN1C(=O)NC2(CCCC2)C1=O)Nc1ccc(F)cc1
2. CC1(C)CC(=O)c2c(nn(-c3ccccc3)c2N)C1

1: 0.19; 2: -0.372

I have 5 compounds here; please give me z-score for each one.
1. C/C=C/C=N/Nc1nc(-c2ccc([N+](=O)[O-])cc2)cs1
2. Cc1cccc(NC(=O)c2cccs2)n1
3. Cn1c(SCC(=O)c2ccccc2F)nnc1C1CC1
4. O=C(NC(=S)Nc1ccc(Cl)cn1)C(c1ccccc1)c1ccccc1
5. CSc1nccc(Oc2ccc(C#N)cc2)n1

[-0.273, 0.965, -0.74, 0.284, -0.172]
